# Tested on: GT1-1
# ASSAY_OVERVIEW: Activation of [3H]prazosin uptake at transport-P transporter protein in mouse GT1-1 cells at 1 uM relative to control
# Format: cell-based
METRIC_NAME: Activity (%)

MOLECULE: COc1cc2nc(N3CCN(C(C)=O)CC3)nc(N)c2cc1OC
OBSERVED: 0
//
MOLECULE: COc1cc2nc(N3CCN(C(=O)c4cccs4)CC3)nc(N)c2cc1OC
OBSERVED: 57
//
MOLECULE: COc1cc2nc(NCc3ccco3)nc(N)c2cc1OC
OBSERVED: 26
//
MOLECULE: COc1cc2nc(N3CCN(C(=O)c4ccco4)CC3)nc(O)c2cc1OC
OBSERVED: 0
//
MOLECULE: Nc1nc(N2CCN(C(=O)c3ccccc3)CC2)nc2ccccc12
OBSERVED: 0
//
MOLECULE: COc1cc2cnc(N3CCN(C(=O)c4ccco4)CC3)nc2cc1OC
OBSERVED: 0
//
MOLECULE: CNc1nc(N2CCN(C(=O)c3ccco3)CC2)nc2cc(OC)c(OC)cc12
OBSERVED: 0
//
MOLECULE: COc1cc2nc(N3CCN(C(=O)C4CCCO4)CC3)nc(N)c2cc1OC (racemic)
OBSERVED: 0
//
MOLECULE: COc1cc2nc(N3CCCN(C(=O)c4ccco4)CC3)nc(N)c2cc1OC
OBSERVED: 0
//
MOLECULE: COc1cc2nc(N3CCC(C)CC3)nc(N)c2cc1OC
OBSERVED: 0
//
MOLECULE: Nc1nc(N2CCN(C(=O)c3ccco3)CC2)nc2cc3c(cc12)OCCO3
OBSERVED: 0
//
MOLECULE: COc1cc2nc(N3CCN(C(=O)c4ccco4)CC3)nc(Nc3ccccc3)c2cc1OC
OBSERVED: 0
//
MOLECULE: Nc1nc(N2CCN(C(=O)c3ccco3)CC2)nc2ccccc12
OBSERVED: 0
//
MOLECULE: COc1cc2nc(N3CCN(c4ccccc4)CC3)nc(N)c2cc1OC
OBSERVED: 0
//
MOLECULE: COc1cc2nc(N3CCN(C(=O)c4ccco4)CC3)nc(N)c2cc1OC
OBSERVED: 127
//
MOLECULE: COc1cc2nc(N3CCN(C(=O)c4ccco4)CC3)nc(N3CCOCC3)c2cc1OC
OBSERVED: 0
//
MOLECULE: COc1cc2nc(N3CCN(C(=O)c4ccco4)CC3)nc(NCc3ccccc3)c2cc1OC
OBSERVED: 0
//
MOLECULE: COc1cc2nc(N3CCN(C(=O)c4ccco4)CC3)nc(NC(C)=O)c2cc1OC
OBSERVED: 0
